# TARGET_OR_SYSTEM: recombinant human AMPK complex 1 (containing α1β1γ1) (Homo sapiens, UniProt Q13131+Q9Y478)
# Sequence (Q13131 whole entry): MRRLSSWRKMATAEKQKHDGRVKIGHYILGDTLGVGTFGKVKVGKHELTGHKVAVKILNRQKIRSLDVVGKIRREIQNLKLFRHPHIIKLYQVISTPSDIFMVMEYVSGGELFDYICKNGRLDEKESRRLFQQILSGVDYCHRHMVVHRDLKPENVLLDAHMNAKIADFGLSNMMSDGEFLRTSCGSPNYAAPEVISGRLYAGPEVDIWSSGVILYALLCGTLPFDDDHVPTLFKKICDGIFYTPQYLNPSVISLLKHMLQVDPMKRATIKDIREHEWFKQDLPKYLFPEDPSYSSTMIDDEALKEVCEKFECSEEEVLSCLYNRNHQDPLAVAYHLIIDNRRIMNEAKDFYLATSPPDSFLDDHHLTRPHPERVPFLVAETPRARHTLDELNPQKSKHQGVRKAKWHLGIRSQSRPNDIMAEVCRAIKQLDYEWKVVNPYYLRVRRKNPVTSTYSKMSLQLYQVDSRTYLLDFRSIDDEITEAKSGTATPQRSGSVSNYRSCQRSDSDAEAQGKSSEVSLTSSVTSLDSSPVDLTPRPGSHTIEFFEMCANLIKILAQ
# Sequence (Q9Y478 whole entry): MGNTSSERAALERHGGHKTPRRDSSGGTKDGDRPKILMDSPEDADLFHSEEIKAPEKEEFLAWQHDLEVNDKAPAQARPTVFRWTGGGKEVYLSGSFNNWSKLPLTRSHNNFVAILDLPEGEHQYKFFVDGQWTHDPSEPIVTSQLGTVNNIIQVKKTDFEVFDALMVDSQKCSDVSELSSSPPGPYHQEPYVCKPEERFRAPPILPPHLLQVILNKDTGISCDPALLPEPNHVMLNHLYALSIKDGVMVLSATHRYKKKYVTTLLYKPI
# Sequence (P54619 whole entry partner): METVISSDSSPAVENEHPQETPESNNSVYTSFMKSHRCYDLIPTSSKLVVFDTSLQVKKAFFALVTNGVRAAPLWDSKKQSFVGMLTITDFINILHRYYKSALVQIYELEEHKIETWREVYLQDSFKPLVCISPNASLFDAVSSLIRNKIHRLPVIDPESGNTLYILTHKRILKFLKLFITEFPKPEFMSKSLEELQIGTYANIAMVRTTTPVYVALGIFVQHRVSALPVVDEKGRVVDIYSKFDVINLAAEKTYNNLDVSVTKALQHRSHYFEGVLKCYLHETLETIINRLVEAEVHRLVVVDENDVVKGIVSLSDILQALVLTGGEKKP
# MEASUREMENT_PROTOCOL: In vitro AMPK activation assay ([…])
# Format: biochemical
# CONDITION_PARAMETERS: recombinant human AMPK complex 1 (α1β1γ1); read-out: EC50
RECORDED_ENDPOINT: pEC50
One number for each entry, as −log10 of the molar value.

> print(dat)
                                   compound  readout.number
1  O=C(O)CSc1nc2cc(-c3ccc(-c4ccccc4O)cc3)c(Cl)cc2[nH]1 [Example 6]            7.89
2  O=C(O)CSc1nc2cc(C#Cc3ccc(CO)cc3)c(Cl)cc2[nH]1 [Example 18]            6.61
3  O=C(O)CSc1nc2cc(-c3ccc4[nH]ccc4c3)c(Cl)cc2[nH]1 [Example 66]            6.55
4  O=C(O)COc1nc2cc(C#Cc3ccc(CO)cc3)c(Cl)cc2[nH]1 [Example 47]            7.01
5  O=C(O)COc1nc2cc(C#Cc3ccccc3)c(Cl)cc2[nH]1 [Example 48]            6.89
6  O=C(O)COc1nc2cc(-c3ccc(-c4ccccc4)cc3)c(Cl)cc2[nH]1 [Example 46]            6.89

Take each entry in turn and give its pEC50.
1. Cn1ccc2cc(-c3cc4nc(SCC(=O)O)[nH]c4cc3Cl)ccc21 [Example 59]
2. O=C(O)COc1nc2cc(-c3ccc(-c4ccn[nH]4)cc3)c(Cl)cc2[nH]1 [Example 45]

Reply:
[7.00, 6.80]

Where do these numbers come from? They come from patent US8563746B2.
